Tested on: melanoma cells B-16
protocolDetails: Inhibiting effect on melanin synthesis in pigment cells (whiteness of cell residue observed by eye)
Assay type: cell-based
Design: key: −: same colour as the comparative solvent example (black); +: slight colour difference from the comparative solvent example (black grey); ++: clear colour difference from the comparative solvent example (white grey); +++: no colour in the cells (white)
settings: 3.1 ppm in culture medium, 4 days, B-16 melanoma cells
Experimental: In plastic culture flasks ([…]), 5×10^4 of melanoma cells B-16 were respectively inoculated and cultivated at 37° C. in DMEM culture media each containing 10% of blood serum (Nippon Suisan Co. Ltd) in the presence of 5% of carbon dioxide. […]
measuredParameter: whiteness of cells rated by eye (melanin synthesis inhibition)

Illustrative cases are given below, each with its answer.
>  <compound>
O=C1CCCCCCCC=CCCCCCC1O (centres unmarked) [2-hydroxy-8-cyclohexadecenone]

>  <value>
+

$$$$
>  <compound>
CC(=O)CCC1=C(C)CCCC1(C)C [dihydro-β-ionone, reference compound]

>  <value>
+

$$$$
>  <compound>
CC1CCCCCCCCCCCCC(=O)C1 (centres unmarked)

>  <value>
++

$$$$
>  <compound>
O=C1CCCCCCCCC=CCCCCCCC1O (centres unmarked) [2-hydroxy-9-cyclooctadecenone]

>  <value>
+++

$$$$
>  <compound>
O=C1CCCCCCCCCCCCCC1O (centres unmarked) [2-hydroxycyclopentadecanone, reference compound]

>  <value>
−

$$$$

Look at this compound and give its reported whiteness of cells rated by eye (melanin synthesis inhibition). O=C1CCCCCCCCCCCCCCC=CCCCCCCCCCCCCC1O (centres unmarked) [2-hydroxy-15-cyclotriacontenone, reference compound]
−

Look at this compound and give its reported whiteness of cells rated by eye (melanin synthesis inhibition). O=C1CCC/C=C/CCCCCCCCCC1 [5(E)-cyclohexadecenone]
++

Look at this compound and give its reported whiteness of cells rated by eye (melanin synthesis inhibition). CCCCCCCC(=O)CCCCCCC [8-pentadecanone, reference compound]
−

Look at this compound and give its reported whiteness of cells rated by eye (melanin synthesis inhibition). OC1CCCCCCCC=CCCCCCCC1 (mixture of isomers) [9(EZ)-cycloheptadecenol]
++

Look at this compound and give its reported whiteness of cells rated by eye (melanin synthesis inhibition). OC[C@H]1O[C@@H](Oc2ccc(O)cc2)[C@H](O)[C@@H](O)[C@@H]1O [arbutin, reference compound]
+

Look at this compound and give its reported whiteness of cells rated by eye (melanin synthesis inhibition). O=C1CCCCCCCCC=CCCCCCCCCC1 (mixture of isomers) [10(EZ)-cycloeicosenone]
+++

Look at this compound and give its reported whiteness of cells rated by eye (melanin synthesis inhibition). CC1C=CCCCCCCCCCCC(=O)CC1 (mixture of isomers) [5(EZ)-4-methylcyclohexadecenone]
++

Look at this compound and give its reported whiteness of cells rated by eye (melanin synthesis inhibition). CCCCCCCCC(=O)CCCCCCCC [9-heptadecanone, reference compound]
−

Look at this compound and give its reported whiteness of cells rated by eye (melanin synthesis inhibition). CC(O)CCC1C(C)CCCC1(C)C (centres unmarked) [tetrahydroionol, reference compound]
+

Look at this compound and give its reported whiteness of cells rated by eye (melanin synthesis inhibition). CCCCCCCCCCCCCC(=O)CC [3-hexadecanone, reference compound]
−

Look at this compound and give its reported whiteness of cells rated by eye (melanin synthesis inhibition). O=C1CCCCCCCCCCC1 [cyclododecanone, reference compound]
−

Look at this compound and give its reported whiteness of cells rated by eye (melanin synthesis inhibition). CC1C=CCCCCCCCCCCC(O)CC1 (mixture of isomers) [5(EZ)-4-methylcyclohexadecenol]
++

---

Tested on: melanoma cells B-16
protocolDetails: Inhibiting effect on melanin synthesis in pigment cells (whiteness of cell residue observed by eye)
Type: cell-based
Parameters: key: −: same colour as the comparative solvent example (black); +: slight colour difference from the comparative solvent example (black grey); ++: clear colour difference from the comparative solvent example (white grey); +++: no colour in the cells (white)
settings: 3.1 ppm in culture medium, 4 days, B-16 melanoma cells
measuredParameter: whiteness of cells rated by eye (melanin synthesis inhibition)

Illustrative cases are given below, each with its answer.
>  <compound>
O=C1CCCCCCCCCCCCCC1

>  <measuredTarget>
melanoma cells B-16

>  <value>
++

$$$$
>  <compound>
O=C1CCCCCCCCCCCC=CCCCCCCCCCC1O (centres unmarked) [2-hydroxy-12-cyclotetracosenone]

>  <measuredTarget>
melanoma cells B-16

>  <value>
+++

$$$$
>  <compound>
O=C1CCCCCCCCCCCCCCCCCCC1

>  <measuredTarget>
melanoma cells B-16

>  <value>
++

$$$$
>  <compound>
O=C1CCCCCCCCCCCCCCCCCCC1O (centres unmarked) [2-hydroxycycloeicosanone]

>  <measuredTarget>
melanoma cells B-16

>  <value>
+++

$$$$
>  <compound>
OC1CCCCCCCCCCC1 [cyclododecanol, reference compound]

>  <measuredTarget>
melanoma cells B-16

>  <value>
−

$$$$
>  <compound>
OC1CCCCCCCCCCCCCCC1

>  <measuredTarget>
melanoma cells B-16

>  <value>
++

$$$$
>  <compound>
OC1CCCC=CCCCCCCCCCC1 (mixture of isomers) [5(EZ)-cyclohexadecenol]

>  <measuredTarget>
melanoma cells B-16

>  <value>
++

$$$$
>  <compound>
O=C1CCC/C=C\CCCCCCCCCC1 [5(Z)-cyclohexadecenone]

>  <measuredTarget>
melanoma cells B-16

>  <value>
++

$$$$

Look at this compound and give its reported whiteness of cells rated by eye (melanin synthesis inhibition). OC1CCCCCCCCCCCCCC1
++

Look at this compound and give its reported whiteness of cells rated by eye (melanin synthesis inhibition). O=C1CCCCCCCCCCCCCCCCC1O (centres unmarked) [2-hydroxycyclooctadecanone]
+++

Look at this compound and give its reported whiteness of cells rated by eye (melanin synthesis inhibition). O=C1CCCCCCCCCCCCCCCCCCCCCCC1O (centres unmarked) [2-hydroxycyclotetracosanone]
+++

Look at this compound and give its reported whiteness of cells rated by eye (melanin synthesis inhibition). OC1CCCCCCCCC=CCCCCCCCCC1 (mixture of isomers) [10(EZ)-cycloeicosenol]
+++

Look at this compound and give its reported whiteness of cells rated by eye (melanin synthesis inhibition). O=C1CCCCCCCCCC=CCCCCCCCC1O (centres unmarked) [2-hydroxy-10-cycloeicosenone]
+++

Look at this compound and give its reported whiteness of cells rated by eye (melanin synthesis inhibition). O=C1CCCCCCCC=CCCCCCCC1 (mixture of isomers) [9(EZ)-cycloheptadecenone]
++

Look at this compound and give its reported whiteness of cells rated by eye (melanin synthesis inhibition). O=C1CCCCCCCCCCCCCCCC1
++

---

Test system: melanoma cells B-16
protocolDetails: Inhibiting effect on melanin synthesis in pigment cells (whiteness of cell residue observed by eye)
Type: cell-based
Set-up: key: −: same colour as the comparative solvent example (black); +: slight colour difference from the comparative solvent example (black grey); ++: clear colour difference from the comparative solvent example (white grey); +++: no colour in the cells (white)
settings: 1.6 ppm in culture medium, 4 days, B-16 melanoma cells
Procedure: In plastic culture flasks ([…]), 5×10^4 of melanoma cells B-16 were respectively inoculated and cultivated at 37° C. in DMEM culture media each containing 10% of blood serum (Nippon Suisan Co. Ltd) in the presence of 5% of carbon dioxide. […]
measuredParameter: whiteness of cells rated by eye (melanin synthesis inhibition)

Illustrative cases are given below, each with its answer.
>  <compound>
OC1CCCC=CCCCCCCCCCC1 (mixture of isomers) [5(EZ)-cyclohexadecenol]

>  <value>
+

$$$$
>  <compound>
OC1CCCCCCCCCCCCCCCC1

>  <value>
+

$$$$
>  <compound>
CC1CCCCCCCCCCCCC(=O)C1 (stereo not shown)

>  <value>
+

$$$$
>  <compound>
CC1C=CCCCCCCCCCCC(=O)CC1 (mixture of isomers) [5(EZ)-4-methylcyclohexadecenone]

>  <value>
+

$$$$
>  <compound>
O=C1CCCCCCCCCCCCCC1

>  <value>
+

$$$$

// switching to the query compound
Value wanted: whiteness of cells rated by eye (melanin synthesis inhibition) (melanoma cells B-16) of entry CC1C=CCCCCCCCCCCC(O)CC1 (mixture of isomers) [5(EZ)-4-methylcyclohexadecenol]
+

---

System: melanoma cells B-16
protocolDetails: Inhibiting effect on melanin synthesis in pigment cells (whiteness of cell residue observed by eye)
Format: cell-based
Design: key: −: same colour as the comparative solvent example (black); +: slight colour difference from the comparative solvent example (black grey); ++: clear colour difference from the comparative solvent example (white grey); +++: no colour in the cells (white)
settings: 1.6 ppm in culture medium, 4 days, B-16 melanoma cells
Method: In plastic culture flasks ([…]), 5×10^4 of melanoma cells B-16 were respectively inoculated and cultivated at 37° C. in DMEM culture media each containing 10% of blood serum (Nippon Suisan Co. Ltd) in the presence of 5% of carbon dioxide. […]
measuredParameter: whiteness of cells rated by eye (melanin synthesis inhibition)

>  <compound>
OC1CCCCCCCC=CCCCCCCC1 (mixture of isomers) [9(EZ)-cycloheptadecenol]

>  <measuredTarget>
melanoma cells B-16

>  <value>
+

$$$$
>  <compound>
CC(=O)CCC1=C(C)CCCC1(C)C [dihydro-β-ionone, reference compound]

>  <measuredTarget>
melanoma cells B-16

>  <value>
−

$$$$
>  <compound>
O=C1CCCCCCCCCCCCCC1O (stereo not drawn) [2-hydroxycyclopentadecanone, reference compound]

>  <measuredTarget>
melanoma cells B-16

>  <value>
−

$$$$
